# System: morningglory
# test: Test B pre/postemergence morningglory
# Format: in vivo, Ipomoea hederacea
# run parameters: Postemergence, Rate 500 g/ha; scale of 0 to 10 where 0 is no effect and 10 is complete control
property name: Plant response rating, Morningglory

INSERT INTO assay_data (molecule, property_name, value_measured) VALUES
  ('CCOC(Cn1c(=O)on(C(=O)N(c2ccc(F)cc2)C(C)C)c1=O)OCC', 'Plant response rating, Morningglory', 3),
  ('CC(C)N(C(=O)n1oc(=O)n(Cc2nnc(Cl)s2)c1=O)c1ccc(F)cc1F', 'Plant response rating, Morningglory', 3),
  ('CCCCCCn1c(=O)on(C(=O)N(c2ccccc2)C(C)C)c1=O', 'Plant response rating, Morningglory', 10),
  ('CC(C)N(C(=O)n1oc(=O)n(COCc2ccccc2)c1=O)c1ccccc1', 'Plant response rating, Morningglory', 10),
  ('C=CCn1c(=O)on(C(=O)N(c2c(C)cccc2C)C(C)COC)c1=O (centres unmarked)', 'Plant response rating, Morningglory', 0);

---

# Test system: wild oat
# test: Test B pre/postemergence wild oat
# Format: in vivo, Avena fatua
# run parameters: Preemergence, Rate 62 g/ha; scale 0 to 10 (0 no effect, 10 complete control)
property name: Wild oats plant response rating

INSERT INTO assay_data (structure, value_measured) VALUES
  ('CCOCn1c(=O)on(C(=O)N(c2ccc(Cl)cc2)C(C)C)c1=O', 3),
  ('CCCCCCn1c(=O)on(C(=O)N(c2ccccc2)C(C)C)c1=O', 0),
  ('Cc1onc(-c2ccccc2)c1-n1c(=O)on(C(=O)N(c2ccc(F)cc2)C(C)C)c1=O', 0);

---

# System: giant foxtail
# test: Test B pre/postemergence giant foxtail
# Assay type: in vivo, Setaria faberii
# run parameters: Preemergence, Rate 250 g/ha; scale 0 (no effect) to 10 (complete control)
In this section, each of the compounds is paired with its reported Giant foxtail plant response rating.
property name: Giant foxtail plant response rating

INSERT INTO assay_data (compound, property_name, value_measured) VALUES
  ('C#CCCn1c(=O)on(C(=O)N(c2ccc(F)cc2)C(C)C)c1=O', 'Giant foxtail plant response rating', 10),
  ('COc1ccc(N(C(=O)n2oc(=O)n(C(C)C)c2=O)C(C)C)cc1', 'Giant foxtail plant response rating', 10),
  ('CC(C)N(C(=O)n1oc(=O)n(CC2=NOCCO2)c1=O)c1ccc(F)cc1F', 'Giant foxtail plant response rating', 10),
  ('CCOP(=O)(Cn1c(=O)on(C(=O)N(c2ccc(F)cc2F)C(C)C)c1=O)OCC', 'Giant foxtail plant response rating', 9),
  ('CC(C)N(C(=O)n1oc(=O)n(C(C)C2=NOCC2)c1=O)c1ccc(Cl)cc1 (racemic)', 'Giant foxtail plant response rating', 10);

---

In this section, each of the compounds is paired with its reported Plant response rating, Crabgrass.
# System: crabgrass
# test: Test B pre/postemergence crabgrass
# Type: in vivo, Digitaria sanguinalis
# run parameters: Preemergence, Rate 125 g/ha; scale 0 to 10 (0 no effect, 10 complete control)
property name: Plant response rating, Crabgrass

INSERT INTO results (structure, property_name, value_measured) VALUES
  ('CC(C)N(C(=O)n1oc(=O)n(-c2ccc(Cl)cc2C(F)(F)F)c1=O)c1ccc(F)cc1', 'Plant response rating, Crabgrass', 2),
  ('Cc1ccccc1-n1c(=O)on(C(=O)N(c2ccccc2)C(C)C)c1=O', 'Plant response rating, Crabgrass', 9),
  ('CC(C)N(C(=O)n1oc(=O)n(C(C)C)c1=O)c1ccc(F)cc1F', 'Plant response rating, Crabgrass', 10),
  ('Cc1cccc(C)c1-n1c(=O)on(C(=O)N(Cc2ccccc2)C(C)C)c1=O', 'Plant response rating, Crabgrass', 0),
  ('Cc1onc(-c2ccccc2)c1-n1c(=O)on(C(=O)N(c2ccc(F)cc2)C(C)C)c1=O', 'Plant response rating, Crabgrass', 0),
  ('CC(C)N(C(=O)n1oc(=O)n(-c2cc(Cl)ccc2Cl)c1=O)c1ccc(F)cc1', 'Plant response rating, Crabgrass', 2),
  ('CC(C)N(C(=O)n1oc(=O)n(Cc2ccccc2)c1=O)c1ccccc1', 'Plant response rating, Crabgrass', 3);
